# System: COR-L23
# assay notes: relative viability (nuclei count vs DMSO), 5 days (fraction); higher = more cells survive
# condition details: first compound 2 µM
Just a reminder that ties go to N: only relative viability strictly below 0.5 counts as Y.

Worked set:
| compound | target entity | class name |
| --- | --- | --- |
| CN1CCN(CCOc2cc(OC3CCOCC3)c3c(Nc4c(Cl)ccc5c4OCO5)ncnc3c2)CC1 [Saracatinib] + Cc1nc(NC(=O)N2CCC[C@H]2C(N)=O)sc1-c1ccnc(C(C)(C)C(F)(F)F)c1 [Alpelisib] (partner 2 µM) | COR-L23 | N |
| CN1CCN(CCOc2cc(OC3CCOCC3)c3c(Nc4c(Cl)ccc5c4OCO5)ncnc3c2)CC1 [Saracatinib] + O=C(c1cc(Cc2n[nH]c(=O)c3ccccc23)ccc1F)N1CCN(C(=O)C2CC2)CC1 [Olaparib] (partner 8 µM) | COR-L23 | Y |
| CN1CCN(CCOc2cc(OC3CCOCC3)c3c(Nc4c(Cl)ccc5c4OCO5)ncnc3c2)CC1 [Saracatinib] + CC1(C)CCC(c2ccc(Cl)cc2)=C(CN2CCN(c3ccc(C(=O)NS(=O)(=O)c4ccc(N[C@H](CCN5CCOCC5)CSc5ccccc5)c(S(=O)(=O)C(F)(F)F)c4)cc3)CC2)C1 [Navitoclax] (partner 0.5 µM) | COR-L23 | N |
| Cc1csc(=NC2CCCCC2)n1/N=C/c1ccc(O)c(O)c1O [MIM1] + Nc1ncn([C@H]2C[C@H](O)[C@@H](CO)O2)c(=O)n1 [Decitabine] (partner 2 µM) | COR-L23 | Y |
| CN1CCN(CCOc2cc(OC3CCOCC3)c3c(Nc4c(Cl)ccc5c4OCO5)ncnc3c2)CC1 [Saracatinib] + C[C@@H](Oc1cc(-c2cnn(C3CCNCC3)c2)cnc1N)c1c(Cl)ccc(F)c1Cl [Crizotinib] (partner 1 µM) | COR-L23 | N |

stdin: Here's an entry: Cc1csc(=NC2CCCCC2)n1/N=C/c1ccc(O)c(O)c1O [MIM1] + O=C(c1cc(Cc2n[nH]c(=O)c3ccccc23)ccc1F)N1CCN(C(=O)C2CC2)CC1 [Olaparib] (partner 8 µM) . Is its relative viability below 0.5?
stdout: Y

stdin: Answer whether the compound CN1CCN(CCOc2cc(OC3CCOCC3)c3c(Nc4c(Cl)ccc5c4OCO5)ncnc3c2)CC1 [Saracatinib] + COc1cccc2cc(-c3nc([C@H]4CC[C@H](C(=O)O)CC4)n4ncnc(N)c34)[nH]c12 [OSI-027] (partner 0.5 µM) has relative viability strictly less than 0.5
stdout: N

stdin: For this compound, is relative viability lower than 0.5? CN1CCN(CCOc2cc(OC3CCOCC3)c3c(Nc4c(Cl)ccc5c4OCO5)ncnc3c2)CC1 [Saracatinib] + COc1cc2c(Oc3ccc(NC(=O)C4(C(=O)Nc5ccc(F)cc5)CC4)cc3F)ccnc2cc1OCCCN1CCOCC1 [Foretinib] (partner 0.25 µM)
stdout: N

stdin: Does the reported relative viability of the following compound sit strictly below 0.5? CN1CCN(CCOc2cc(OC3CCOCC3)c3c(Nc4c(Cl)ccc5c4OCO5)ncnc3c2)CC1 [Saracatinib] + Cc1nc(Nc2ncc(C(=O)Nc3c(C)cccc3Cl)s2)cc(N2CCN(CCO)CC2)n1 [Dasatinib] (partner 0.075 µM)
stdout: Y

stdin: Consider the compound CN1CCN(CCOc2cc(OC3CCOCC3)c3c(Nc4c(Cl)ccc5c4OCO5)ncnc3c2)CC1 [Saracatinib] + O=C(CCCCCCC(=O)Nc1ccccc1)NO [Vorinostat] (partner 1 µM) . Is its relative viability strictly less than 0.5?
stdout: Y
